settings: buffer; pH 7.4; 200.0 µM
// reported solubility kinetic per item

>  <querySmiles>
N/C(CC(=O)Nc1ccc(F)cc1F)=N\OC(=O)c1cccs1

>  <inequalitySign>
=

>  <solubility kinetic (µg/mL)>
16.3

$$$$
>  <querySmiles>
COc1ccc(CNCc2cccc(C)c2)cc1.O=C(O)C(=O)O

>  <inequalitySign>
>

>  <solubility kinetic (µg/mL)>
49.7

$$$$
>  <querySmiles>
N#CCCN(C(=O)COC(=O)CSc1ccc(Cl)cc1)c1ccccc1

>  <inequalitySign>
=

>  <solubility kinetic (µg/mL)>
56.9

$$$$
>  <querySmiles>
Fc1ccc2[nH]c3c(N4CCc5ccccc5C4)ncnc3c2c1

>  <inequalitySign>
=

>  <solubility kinetic (µg/mL)>
1.2

$$$$
>  <querySmiles>
Cc1ccc(C(=O)NC(=O)OCCn2c(C)cnc2[N+](=O)[O-])cc1

>  <inequalitySign>
=

>  <solubility kinetic (µg/mL)>
48.2

$$$$
>  <querySmiles>
O=C(COC(=O)CNC(=O)c1ccccc1Cl)NC1CCCC1

>  <inequalitySign>
>

>  <solubility kinetic (µg/mL)>
50.8

$$$$
>  <querySmiles>
CN1/C(=C/C(=O)C2CC2)C(C)(C)c2ccccc21

>  <inequalitySign>
=

>  <solubility kinetic (µg/mL)>
8.3

$$$$
>  <querySmiles>
CCOC(=O)c1sc(/N=C/c2c(O)ccc3ccccc23)cc1C

>  <inequalitySign>
=

>  <solubility kinetic (µg/mL)>
9.8

$$$$
>  <querySmiles>
O=C(CSc1ncc(C(F)(F)F)cc1Cl)N1CCNC1=O

>  <inequalitySign>
>

>  <solubility kinetic (µg/mL)>
51

$$$$
>  <querySmiles>
O=S(=O)([N-]c1nc2ccccc2nc1-[n+]1ccccc1)c1ccc(F)cc1

>  <inequalitySign>
=

>  <solubility kinetic (µg/mL)>
50.3

$$$$
>  <querySmiles>
CCOC(=O)N1CCN(c2ccc(S(=O)(=O)N3CCOCC3)cn2)CC1

>  <inequalitySign>
=

>  <solubility kinetic (µg/mL)>
47

$$$$
